Catalogue of TGI readings, one per entry.
Test system: MDA-MB-435
protocol-details: NCI tumour cell line growth inhibition, 48 h
Numbers only; they are read as µM.

Some entries whose results are on file:
Cn1cc(-c2ccc(-c3ccc(C4=NC5(CC5)C(=O)N4C[C@@H]4CCN(C(=O)C5CC5)C4)cc3)cc2)cn1 ... 38.9
Cc1cnc(C(=O)Nc2nc3ccc(S(=O)(=O)Nc4ccc(C5(C(F)(F)F)CC5)cc4)cc3[nH]2)cn1 ... 0.238
CC(C)NC(=O)CN1CCN(c2c(O)c3c(c(O)c2Cl)C(=O)C=CC3=O)CC1 ... 3.38
CCN(CC)c1ccc(C(=O)c2ccc(N(CC)CC)cc2)cc1 ... 0.43

Kindly consider the entry below.
Req: Can you share its TGI? I mean this compound: COc1cc(C2CC(c3ccc(Nc4ccnc5cc(Cl)ccc45)cc3)=NN2c2ccc(Cl)cc2)cc(OC)c1OC (stereo not drawn)
Resp: 2.05

----------
System: COLO 205 colon
protocol-details: NCI tumour cell line growth inhibition, 48 h
TGI values for the molecules below.

CC(C)(c1ccccc1)c1ccc(OC#N)cc1 ... > 56.5 µM
Nc1onc2c1Cc1c(noc1N)-c1ccccc1-2 ... > 100 µM
COI1NC(=O)c2ccccc21 ... > 100 µM
N#CC1(C#N)C(C#N)(C#N)C12CCCCCC2 ... 33.7 µM
Cc1cc2c([nH]c3ccccc32)c2c1OC(C)(C)C1C3CC(C)(C)Oc4c(C)cc5c6ccccc6n(c5c43)C21 (stereo unspecified) ... > 100 µM
Clc1ccc(C(n2cc(Br)cn2)n2cc(Br)cn2)cc1 ... 33.8 µM
COc1cc2c(cc1OCCCC(=O)Nc1ccc3ccc4cccc5ccc1c3c45)N=C[C@@H]1CCCN1C2=O ... 4.77 µM
CCN(CC)C(=O)C(C)n1cc(C)c(=O)[nH]c1=O (stereo unspecified) ... > 100 µM

Req: Record request: TGI value, item CC(C)OP(=O)(NC(=S)c1ccccc1)OC(C)C
Resp: > 100 µM

Req: And then O=Cc1c(O)c(C(=O)Nc2ccc3[nH]c(=O)[nH]c3c2)cc2ccccc12 , what is it?
Resp: > 100 µM

Req: # repeat for CC1=C(C)Cc2c(O)ccc(O)c2C1
Resp: 34.7 µM

----------
Test system: HCT-116 colon
protocol-details: NCI tumour cell line growth inhibition, 48 h
Below is a list of entries, each paired with its recorded TGI value.

Completed entries (count: 4):
CCN(CC)C(=O)C(C)n1cc(C)c(=O)[nH]c1=O (stereo not given) ... > 100 µM
CCCCn1c2c(n(CCCC)c1=S)-c1c(n(CCCC)c(=S)n1CCCC)SSc1c(n(CCCC)c(=S)n1CCCC)-c1c(n(CCCC)c(=S)n1CCCC)SSc1c(n(CCCC)c(=S)n1CCCC)-c1c(n(CCCC)c(=S)n1CCCC)SS2 ... > 27.7 µM
CCOC(=O)c1[nH]c(COC(C)=O)c2c1CCCCCCCCCC2 ... > 100 µM
O=c1c2cc(Cl)ccc2sc2cccc(Cl)c12 ... > 100 µM

Consider now this further compound.
Req: Notebook entry, HCT-116 colon assay: TGI of O=Cc1c(O)c(C(=O)Nc2ccc3[nH]c(=O)[nH]c3c2)cc2ccccc12 = ?
Resp: > 100 µM
